B1: RAB40B (parent)
chain: YSLTTSSTHKRSSLRKVKLVRPPQ

Variants of: B1
ASSAY TEXT: protein stability index of a GFP-peptide fusion (GPS, HEK-293T) (PSI 1-6); higher = more stable;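 further: lentivirally expressed fusions sorted by FACS into six bins by GFP to DsRed ratio, PSI derived from sequencing read proportions per bin multiplied by bin number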
EXPERIMENTAL PARAMETERS: c terminus: a fixed tail appended
Tag: class 1 if measured protein stability index is not below 3, class 0 if it is.

T5H; class 0

*Q* Is it the case that P23C has protein stability index reaching or exceeding 3?
*A* class 0

*Q* Is it the case that T5V has protein stability index reaching or exceeding 3?
*A* class 0
